Where do these numbers come from? They come from ChEMBL document CHEMBL6121050.

- ASSAY_REMARKS: AUC infinity in Beagle dog at 2 mg/kg, iv
- Type: ADME, organism-based, Canis lupus familiaris
- SETUP_CONDITIONS: in vivo
METRIC_NAME: AUC(0-inf) (ng·h/mL)
// return numeric value only (unit: ng·h/mL, not printed)

Sample O=C1CCC(N2Cc3cc(CNC(=O)C4=Cc5cc(OC(F)(F)F)ccc5OC4)ccc3C2=O)C(=O)N1 (stereo unspecified) — what was its AUC(0-inf)?
2170

---

- ASSAY_REMARKS: Observed volume of distribution at steady state in Beagle dog at 2 mg/kg, iv
- Format: ADME, organism-based, Canis lupus familiaris
- SETUP_CONDITIONS: in vivo, read-out: Vdss
METRIC_NAME: Vd (L/kg)
All answers are understood in L/kg, so give the number only.

Query (molecule): O=C1CCC(N2Cc3cc(CNC(=O)C4=Cc5cc(OC(F)(F)F)ccc5OC4)ccc3C2=O)C(=O)N1 (stereo unspecified) ; field requested: Vd
0.54
